# tested target: 5HT1D receptor (Bos taurus, UniProt F1MGM3)
# Construct: from tissue
# Sequence (F1MGM3 1-403): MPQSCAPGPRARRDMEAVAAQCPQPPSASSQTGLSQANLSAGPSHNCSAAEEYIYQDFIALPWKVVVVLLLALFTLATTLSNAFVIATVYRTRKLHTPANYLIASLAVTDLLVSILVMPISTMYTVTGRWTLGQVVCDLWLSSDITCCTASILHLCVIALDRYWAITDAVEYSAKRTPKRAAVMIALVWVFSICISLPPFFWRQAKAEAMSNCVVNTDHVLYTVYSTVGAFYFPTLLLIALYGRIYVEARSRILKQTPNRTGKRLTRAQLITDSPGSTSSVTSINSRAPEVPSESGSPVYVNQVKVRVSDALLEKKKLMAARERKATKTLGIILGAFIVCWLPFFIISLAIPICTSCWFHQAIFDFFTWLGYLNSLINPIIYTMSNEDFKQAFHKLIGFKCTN
# measurement description: 5HT1D receptor binding affinity (procedure of Peroutka et al.)
Structures can show the parent of a compound that is named as a salt.
measurement kind: IC50 (nM)
Value expressed in nM; do not type the unit.

COCc1cc2c(N3CCNCC3)cccc2s1 [Example 45, hydrochloride hemihydrate]; 4

Q) Any idea what IC50 was measured for CNC(=O)c1cc2c(N3CCNCC3)cccc2s1 [Example 49, dihydrochloride hydrate] ?
A) 8.4

Q) Note, next up: CC(=O)c1cc2c(N3CCN(CCc4ccccc4)CC3)cccc2s1 [Example 42, hydrochloride]
A) 22

Q) Also Cc1ccc(CCN2CCN(c3cccc4sc(C(N)=O)cc34)CC2)cc1 [Example 29, monohydrochloride] ?
A) 3
